Source of measurements: the supplement of paper PMC10567573

# protein stability index annotations
- method: protein stability index of a GFP-peptide fusion (GPS, HEK-293T) (PSI 1-6); higher = more stable;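 also: 24-mer peptide tiles fused after GFP, lentivirally expressed, FACS-sorted into six equal bins by GFP/DsRed ratio, decoded by Illumina sequencing, PSI is the read-weighted mean bin number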
- stated-conditions: treatment: MLN4924 1 uM, 8 h; c terminus: a fixed tail appended
# output: bare number, no unit

Q: Any idea what protein stability index was measured for PLQFLGLFENSLCRLTHIPAYKVS [ZER1] ?
Ans: 2.08

Q: Thanks! And LQAIKAAIMLLPDENREVLQTLLY [DLC1] ?
Ans: 2.22

Q: Thanks! And GAAGRSHHLDEDEERERIERVRRI [KCTD10] ?
Ans: 5.07

Q: Thanks! And LLRQQLMRAQAQEQERRERREQAA [TFE3] ?
Ans: 4.2

Q: Thanks! And PQAHQESTRGAARPAQAIGTQPRA [SPACA9] ?
Ans: 5.35

Q: Thanks! And NITVQKKVSQWWERLTKQEKRPLF [HACD3] ?
Ans: 2.91

Q: Thanks! And GEPLEKVASVGNSRPTGQQLESLG [KISS1] ?
Ans: 5.1

Q: Thanks! And ISEEGHHYLIFDLVTGGELFEDIV [CAMK2A] ?
Ans: 2.13

Q: Thanks! And SSREDSLEAGLPLQVRGYPEEKKE [CHGA] ?
Ans: 5.5

Q: Thanks! And GGQITDEMAEQLMTLAYDNGINLF [KCNAB2] ?
Ans: 2.9

Q: Thanks! And SNPLAREIFRRHFRQLCYQETPGP [ZSCAN9] ?
Ans: 2.52

Q: Thanks! And LIGAAAFLGGVVRMTISLTVILIE [CLCN6] ?
Ans: 2.75

Q: Thanks! And DGENVFTGQSKIYSYMSPNKCSGM [KMT5A] ?
Ans: 3.3

====

- method: protein stability index of a GFP-peptide fusion (GPS, HEK-293T) (PSI 1-6); higher = more stable
- stated-conditions: treatment: DMSO; c terminus: a fixed tail appended
# protein stability index annotations
# output: bare number, no unit

Q: Any idea what protein stability index was measured for ELRRNHCFQDFKEEKPQENKTWRE [ELOA2] ?
Ans: 3.31

Q: Thanks! And QSAFLHLPLPEQIHKASATIIEPA [INTS4] ?
Ans: 3.45

Q: Thanks! And NLKWLDLKDNPLDPVLAKVAGDCL [LRRC59] ?
Ans: 3.21

Q: Thanks! And YMVQDQHECILPFVQVKGNFARLQ [M1AP] ?
Ans: 2.56

Q: Thanks! And PGPSPDVQLATLAQRVKEVLPHVP [AUP1] ?
Ans: 4.14

Q: Thanks! And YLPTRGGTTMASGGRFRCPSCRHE [TRIM55] ?
Ans: 2.69

====

- method: protein stability index of a GFP-peptide fusion (GPS, HEK-293T) (PSI 1-6); higher = more stable
- stated-conditions: treatment: DMSO; c terminus: a fixed tail appended
Mark NOT MET for protein stability index values under 3, and MET for everything at or above.

Before answering, review these 3 worked examples.
sequence-string | label-value
DMSIGGNLSKTQNMERFGEDNLED [CDC14A] | MET
DVIQALDLSVPLMDVGETAMVTAD [FKBP8] | MET
ESDTDGAGGNSSSSAAMQSSCSST [CCDC6] | MET

Q: Say whether LVQVESVNLQVATYSKFQPQSPDF [UFD1] shows protein stability index of 3 or more.
Ans: NOT MET

Q: Thanks! And ILLSKEPDGVWAYNRGEHPIFVNS [SMAD6] ?
Ans: NOT MET

Q: Thanks! And HVKKLQQKVATLEKRNRQLRERVK [CCDC3] ?
Ans: MET

Q: Thanks! And SETGSTGALETRSLKDHKVSFLRS [C2CD2L] ?
Ans: MET

====

- method: protein stability index of a GFP-peptide fusion (GPS, HEK-293T) (PSI 1-6); higher = more stable
- stated-conditions: treatment: DMSO; c terminus: a fixed tail appended
observable: protein stability index
# output: bare number, no unit

The cases that follow already have their protein stability index on record.
sequence-string | experimental-value
IREEGRCSSSDDDTDVDMEGLRRR [PBXIP1] | 5.37
QGRFCTIFRSYSRGAQGVILVYDI [RAB40A] | 3.15
YFRDLPEPLMTNKLSETFLQIYQY [DLC1] | 2.37

# evaluate next
Q: Any idea what protein stability index was measured for GARLGGFNFVSTPKCSCGQLAAVH [RNF180] ?
Ans: 2.36

====

- method: protein stability index of a GFP-peptide fusion (GPS, HEK-293T) (PSI 1-6); higher = more stable
- stated-conditions: treatment: DMSO; c terminus: a fixed tail appended
observable: protein stability index

sequence-string | protein stability index
EINKRTAAENEFVLLKKDVDAAYA [KRT71] | 3.76
STCHAYSNTRDRYGRSWESYSSCG [RBMY1A1] | 2.29
DLYALKSVKIPVRNHGILMETHKE [LYSMD4] | 3.02
AQQDLAPDPDAWLRALGELLRRDL [FANCE] | 3.11

Q: Any idea what protein stability index was measured for GSAAGHVLVKDNGLGCKDLDLIFH [TENT5C] ?
Ans: 2.59

Q: Thanks! And LGSKHKVCMDLRANLKQVKKEDTE [TNNI2] ?
Ans: 4.76

Q: Thanks! And PDRGSPEYRQRRERNNIAVRKSRD [CEBPD] ?
Ans: 5.03

Q: Thanks! And HQEAEMAQNAVRLHYGLPVVVKLL [CTNNB1] ?
Ans: 2.58

====

- method: protein stability index of a GFP-peptide fusion (GPS, HEK-293T) (PSI 1-6); higher = more stable
- stated-conditions: treatment: MLN4924 1 uM, 8 h; c terminus: native
observable: protein stability index

Q: Any idea what protein stability index was measured for ERKQALYEYARRRFTERRAQEAD [AUP1] ?
Ans: 4.25

Q: Thanks! And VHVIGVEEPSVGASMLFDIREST [ZNF8] ?
Ans: 2.38

Q: Thanks! And LPFKPFAIILPILLNIRVATKYV [MIA2] ?
Ans: 3.36

====

- method: protein stability index of a GFP-peptide fusion (GPS, HEK-293T) (PSI 1-6); higher = more stable
- stated-conditions: treatment: DMSO; c terminus: a fixed tail appended
Mark Not met for protein stability index values under 4, and Met for everything at or above.

Before answering, review these 2 worked examples.
sequence-string | label-value
NNILISAVLPTAFRVAKKRAPKVL [GDAP1] | Not met
TVASMMHRQETVECLKKFNARRKL [CAMK2B] | Not met

Q: Say whether YVALQTKGALQKKPLYVAFSFMYI [KCNK9] shows protein stability index of 4 or more.
Ans: Not met

Q: Thanks! And MEQPTSSTNGEKTKSPCESNNKKN [SPANXN3] ?
Ans: Met

Q: Thanks! And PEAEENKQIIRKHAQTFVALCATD [CCND1] ?
Ans: Not met

Q: Thanks! And FLPFLLCAVLLSAVQAQAGWLQHD [FADS1] ?
Ans: Not met

Q: Thanks! And EACGRCEEVPEAYVDIHTGLSGSG [PYCR3] ?
Ans: Met

Q: Thanks! And ESVTHHDYRMELAQAGTPAPTKPH [SPAG8] ?
Ans: Met

Q: Thanks! And WFFLQSELKKLKNLEGNELQRHAD [FUT8] ?
Ans: Not met

Q: Thanks! And TQIIGEQNARLAELERKLREVMES [FBXO28] ?
Ans: Not met

====

- method: protein stability index of a GFP-peptide fusion (GPS, HEK-293T) (PSI 1-6); higher = more stable
- stated-conditions: treatment: DMSO; c terminus: a fixed tail appended
observable: protein stability index
# output: bare number, no unit

The cases that follow already have their protein stability index on record.
sequence-string | protein stability index
STELQASQILQNKKHKNSQLDKNS [FAM98B] | 4.91
SDGTDEPESKEPVEKEEEPDPEPP [SMG5] | 5.67
TSKNSSTQDPSQPNSTKNQSLPKA [LCOR] | 5.31
FSGRMEVLTDSEGWILIDRCGKHF [KCTD10] | 2.57
AVQRLEGALWGLQAQAVQTEQAVA [SCARA5] | 2.89
GQRFYSRVLSPLHRGPSGHTEASA | 3.74
GGLIYWIGLTKAGMEGDWSWVDDT [CD207] | 2.12
ATEPATCFPSTQKPTEPSVPVQPL [FBF1] | 4.9
GYIDPEELAEIFRASGEHVTDEEI [TNNC2] | 5.01
EFSLVNVNLQRFGMNGQMLCNLGK [ETS2] | 2.32

Q: Any idea what protein stability index was measured for LLDLQPDFSSGGAAAAAAPAPPPP [SNAP91] ?
Ans: 4.68

Q: Thanks! And WRRSGKYVYKPVMNQTCCPQYTIR [ATE1] ?
Ans: 2.03

Q: Thanks! And ANLPVPTIAAIDGLALGGGLELAL [AUH] ?
Ans: 2.35

Q: Thanks! And GGSHPSRPNSRHTPSFSGDSSSSC [VDR] ?
Ans: 4.75

Q: Thanks! And TGVYPRCLHASQWPVCAACPVRKF [BRF1] ?
Ans: 2.49
